B1: ZER1 (parent)
chain: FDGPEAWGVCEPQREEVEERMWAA

Variants of: B1
test name: protein stability index of a GFP-peptide fusion (GPS, HEK-293T) (PSI 1-6); higher = more stable;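 note: lentivirally expressed fusions sorted by FACS into six bins by GFP to DsRed ratio, PSI derived from sequencing read proportions per bin multiplied by bin number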
condition summary: c terminus: a fixed tail appended
experimental readout: protein stability index
// return a plain number; no unit text

As a guide, the following entries are already answered.
1. Q13M = 2.46
2. V17H = 2.77

Reported protein stability index for E18G was 3.36

Reported protein stability index for W22F was 2.57

Reported protein stability index for E11T was 2.58

Where do the numbers come from? From the supplement of paper PMC10567573.
